Measurement Notes: Pharmacokinetic profiling: plasma levels after single IV or oral administration
Type: in vivo, CD1 male mice
Test Settings: male, CD1, mouse, plasma; piceid 10 mg/kg PO, 0.5 h; read-out: Piceid (Detection of piceid) in plasma, PO
Attribute Measured: concentration at 0.5 h (ng/mL)
Numbers only here, please. The scale is ng/mL.

Quick one: give measured concentration at 0.5 h for OC[C@H]1O[C@@H](Oc2cc(O)cc(C=Cc3ccc(O)cc3)c2)[C@H](O)[C@@H](O)[C@@H]1O [Piceid, resveratrol 3-O-β-D-glucopyranoside]
5

====

Measurement Notes: Pharmacokinetic profiling: plasma levels after single IV or oral administration
Format: in vivo, CD1 male mice
Test Settings: male, CD1, mouse, plasma; piceid 10 mg/kg PO, 1 h; read-out: Piceid (Detection of piceid) in plasma, PO
Attribute Measured: concentration at 1 h (ng/mL)
Express it in ng/mL; write the number only.

Report concentration at 1 h for OC[C@H]1O[C@@H](Oc2cc(O)cc(C=Cc3ccc(O)cc3)c2)[C@H](O)[C@@H](O)[C@@H]1O [Piceid, resveratrol 3-O-β-D-glucopyranoside]
8
